# assay.target: Thyrotropin receptor (Homo sapiens) (UniProt P16473)
# Sequence (P16473 whole entry, looked up): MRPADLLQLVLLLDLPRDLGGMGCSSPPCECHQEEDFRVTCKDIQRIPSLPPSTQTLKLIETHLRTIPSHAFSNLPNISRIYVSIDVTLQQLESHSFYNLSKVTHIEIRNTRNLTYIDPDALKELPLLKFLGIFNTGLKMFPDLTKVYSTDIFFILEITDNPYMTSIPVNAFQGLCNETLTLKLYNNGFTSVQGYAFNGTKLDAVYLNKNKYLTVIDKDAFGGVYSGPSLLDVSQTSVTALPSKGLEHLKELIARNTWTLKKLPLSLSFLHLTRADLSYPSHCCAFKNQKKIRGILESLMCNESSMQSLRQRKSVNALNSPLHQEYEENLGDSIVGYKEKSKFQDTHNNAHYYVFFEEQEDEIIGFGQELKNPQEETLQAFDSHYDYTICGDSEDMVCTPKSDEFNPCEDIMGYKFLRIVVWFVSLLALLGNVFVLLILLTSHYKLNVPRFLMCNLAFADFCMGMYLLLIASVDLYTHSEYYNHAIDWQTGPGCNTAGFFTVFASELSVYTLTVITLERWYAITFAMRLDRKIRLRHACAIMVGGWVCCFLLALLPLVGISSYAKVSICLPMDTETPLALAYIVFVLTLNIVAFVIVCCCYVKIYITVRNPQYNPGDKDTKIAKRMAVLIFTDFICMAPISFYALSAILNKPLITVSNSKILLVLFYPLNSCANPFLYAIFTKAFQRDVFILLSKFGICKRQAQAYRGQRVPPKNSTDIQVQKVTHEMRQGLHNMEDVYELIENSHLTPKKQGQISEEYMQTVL
# method.summary: qHTS for antagonists of the Thyroid Stimulation Hormone Receptor: Hit Validation in Primary Screen; also: nearly all actives have a fitted effect of over 80% in size
# conditions: TSHR-expressing cells, cAMP antagonist mode; series mostly up to 58 µM
Out of some 1,300 compounds screened, about 380 (29%) were called active. Not shown: some 37% with an inconclusive outcome. Calls follow the shape of the dose curve; as a rule, active = well fitted inhibition curve with a large enough effect; inconclusive = small, poorly fitted or top-dose-only effect; inactive = flat fitted curve, though single readings scatter. Some of the results follow.
Form entry, call: pick from Yes (active), No (inactive)

Previously resolved entries follow.
{"columns": ["molecule", "assigned.category"],
 "data": [
  ["O=C(Nc1nc(-c2cccs2)cs1)c1cccc(S(=O)(=O)N2CCCCCC2)c1", "No"],
  ["O=C(COc1ccc(Cl)cc1)Nc1nc(-c2cccs2)cs1", "Yes"],
  ["C=CCn1c(SCC(=O)c2cccs2)nc2sc(CC)cc2c1=O", "Yes"],
  ["N#CC(C#N)=NNc1ccc(S(=O)(=O)N2CCCCC2)cc1", "Yes"],
  ["COc1ccc(-c2nn(-c3ccccc3)cc2/C=N/NC(=O)c2ccc(Br)o2)cc1", "Yes"]
]}

We next turn to a different molecule, shown below.
(Q) Look up the recorded call for CC1CCCCN1C(=O)CSCC(=O)Nc1nc(-c2cccs2)cs1 (stereo unspecified) in this test.
(A) Yes

* * *

# assay.target: Thyrotropin receptor (Homo sapiens)
# method.summary: qHTS for antagonists of the Thyroid Stimulation Hormone Receptor: Hit Validation in Primary Screen; also: nearly all actives have a fitted effect of over 80% in size
# conditions: TSHR-expressing cells, cAMP antagonist mode; series mostly up to 58 µM
In all, about 1,300 compounds went through this assay and about 380 (29%) were called active. About 37% were inconclusive and are not listed. Calls follow the shape of the dose curve; as a rule, active = well fitted inhibition curve with a large enough effect; inconclusive = small, poorly fitted or top-dose-only effect; inactive = flat fitted curve, though single readings scatter. This is one part of the list.
Output constraint: value belongs to yes for active, no for inactive

{"columns": ["molecule", "assigned.category"],
 "data": [
  ["O=C1NC(=S)S/C1=C\\c1ccc(SCc2ccccc2)o1", "yes"],
  ["COc1cc(C(=O)NCCNC(=O)c2cnccn2)cc(OC)c1OC", "no"],
  ["CCS(=O)(=O)c1ccc(C(=O)Nc2ccccc2)c(Cl)c1Cl", "no"],
  ["Clc1ccc(C2Nc3cccc4cccc(c34)N2)cc1", "no"],
  ["CC1CCCC(N2CCN(S(=O)(=O)c3ccccc3)CC2)C1 (centres undefined)", "no"]
]}

(Q) So what was the verdict on O=C(NC1CCCCC1)c1cc(-c2ccccc2O)on1 in this test?
(A) no

(Q) Tell me the recorded outcome of this test for CN(C)c1ccc(NC(=O)C2C3C=CC(C3)C2C(=O)O)cc1 (centres undefined) .
(A) no

(Q) What was the test verdict on O=C(CSc1ccc(F)cc1)N1CCC(c2nc3ccccc3s2)CC1 ?
(A) yes

(Q) Just curious, what result did Nc1ccn(Cc2ccccc2F)n1 get here?
(A) no

(Q) Please indicate how the test categorized O=[N+]([O-])c1c(Nc2cccc(O)c2)cc(Cl)c2nonc12 .
(A) yes

(Q) Please indicate how the test categorized c1ccc(CNc2ncnc3scc(-c4cccs4)c23)nc1 .
(A) yes

(Q) Look up the recorded call for O=C(Nn1cnnc1)C(c1ccccc1)c1ccccc1 in this test.
(A) no

(Q) Name the outcome recorded for O=C1/C(=C\c2cc([N+](=O)[O-])ccc2O)SC(=S)N1Cc1ccc(Cl)cc1 in the assay.
(A) yes

(Q) Could you kindly confirm the outcome this assay logged for CCN(CC)c1ccc2nc3ccccc3[n+](CC)c2c1 ?
(A) yes

(Q) Query: recorded result category for CC(=O)C1=C(O)C(=O)N(c2ccc(O)cc2)C1c1cccc(F)c1 (centres undefined) in this test
(A) no

(Q) Kindly provide the recorded test outcome for the following molecule: COc1cc([N+](=O)[O-])cc(/C=C2/SC(=S)N(Cc3ccccc3)C2=O)c1O
(A) yes

(Q) // return assay outcome for CN(C)c1ccc(NC(=O)Oc2ccccc2)cc1
(A) no

(Q) GET /call?item= COc1ccc(F)cc1CN1CCN(C(=O)CCC(=O)Nc2nnc(CC(C)C)s2)CC1 returns the recorded outcome of this test.
(A) no

(Q) Which outcome was assigned to Cc1nc(SCC(=O)N2CCN(c3ccccc3)CC2)n[nH]1 in this test?
(A) no

(Q) State the result this test recorded for CN(C(=O)CN1C(=O)/C(=C/c2ccccc2Cl)SC1=S)C1CCS(=O)(=O)C1 (centres undefined) .
(A) no

(Q) Hey, what did the test say about Nc1nnc(COc2ccc(Br)cc2Br)s1 ?
(A) no

(Q) Entry CCOc1ccccc1NC(=O)C1(S(=O)(=O)c2ccc(Cl)cc2)CC1 : call = ?
(A) no

(Q) I'd appreciate the recorded outcome for CCSc1ncc(Cl)c(C(=O)Nc2ccccc2OC)n1 from this test.
(A) no

(Q) Could you please tell me the result logged for CC(C)N(C(=O)Cn1c(-c2cccnc2)ccc(C#N)c1=O)C(C)C in this assay?
(A) no
